# tested_system: T1, NPNA4 peptide (Plasmodium falciparum (isolate 3D7)., not fully specified)
# T1 construct: source: synthetic peptide (InnoPep Inc, purity >=97%)
# T1 chain: NPNANPNANPNANPNA
# assay_protocol: BLI
# experimental_context: both partners purified
pKd: −log10 of the molar value. Ends that are not written are not given here.
Mark met for reported pKd of 7 or greater; mark not met for anything smaller.

**Query** In plain terms: is recorded pKd at least 7 for 239R Fab (Fab, V domains shown, also called Fab239R; 239 FabR; source: ExpiCHO cells, purified (mAb Select PrismA or Capture Select, SEC)) VH: QVQLVESGGGVVQPGRSLRLSCAASRLTFSSYGMHWVRQTPGKGLEWVAVIWHDGSNKFYADSVKGRFTISRDNSKNTLYLQMNSLRDEDTAIYYCAKDWGGASDRVFDYWGRGTLVIVSS VL: DIQMTQSPSTLSASVGDRVTITCRASQSVSTSLAWYQQKPGKAPNLLIYQASTLYTGVPSRFSGSGSGTEFTLTIGSLQPDDFATYYCQHYNSYSRITFGQGTRLEIK ?
**Result** not met
